measurement description: Cellular viability qHTS for adrenocortical cancer (ACC) cell line SW-13 (AID 1963989); also: potency is read from the fitted curve at half-maximal effect; nearly all actives have a fitted effect of over 65% in size
condition details: SW-13 ACC cells viability, CellTiter-Glo, 48 h
Text: PI: Naris Nilubol, MD Surgical Oncology Program, National Cancer Institute (NCI) National Institute of Health (NIH), Bethesda, Maryland Adrenocortical cancer (ACC) is a rare malignancy with poor survival outcomes and few treatment options. Currently, mitotane is the only FDA-approved therapy for ACC. […] Through a quantitative high-throughput drug screen (qHTS), we identified auranofin (AF), a thioredoxin reductase (TXNRD) inhibitor, as a promising candidate drug. […]
Results filed as inconclusive are left out. The source made the active and inactive calls. Calls follow the shape of the dose curve; as a rule, active = well fitted cell-killing curve with a large enough effect; inconclusive = small, poorly fitted or top-dose-only effect; inactive = flat fitted curve, though single readings scatter.
measured endpoint: Potency

Answered cases to consult:
# given smiles, Potency
data = [
    ("Cc1c[nH]c2nc(Nc3ccc(N4CCN(C)CC4)c(F)c3)nc(-c3cccc(CC#N)c3)c12", "2240 nM (active)"),
    ("Cc1cc2c(C(C)C)c(O)c(O)c(C=O)c2c(O)c1-c1c(C)cc2c(C(C)C)c(O)c(O)c(C=O)c2c1O", "10000 nM (active)"),
    ("CN(C)C1CCN(C(=O)c2ccc(NC(=O)Nc3ccc(-c4nc(N5CCOCC5)nc(N5CCOCC5)n4)cc3)cc2)CC1", "251 nM (active)"),
    ("O=C(/C=C/c1cccnc1)NCCCCC1CCN(C(=O)c2ccccc2)CC1", "12.6 nM (active)"),
    ("Cc1cc(OCCCc2c3n(c4c(-c5c(C)nn(C)c5C)c(Cl)ccc24)[C@H](C)CN(c2cn(C)c4ccc(C(=O)O)cc24)C3=O)cc(C)c1Cl", "2000 nM (active)"),
    ("O=C1c2ccccc2-[n+]2ccc3c([nH]c4ccccc43)c21", "2820 nM (active)"),
    ("Nc1ccc(/C=C/C(=O)NCc2cc3cc(-c4ccc(C(=O)N5CCC(F)(F)CC5)cc4)cc(-c4ccc(F)cc4)c3o2)cn1", "1120 nM (active)"),
]

Now turn to the next molecule.
Identify Potency associated with the molecule Cc1cc(Nc2ncc(Cl)c(Nc3ccccc3S(=O)(=O)C(C)C)n2)c(OC(C)C)cc1C1CCNCC1
15800 nM (active)

====

measurement description: Viability qHTS for spleen associated tyrosine kinase inhibitor (SYKi) naive MV4-11 cells (AID 1963823); also: nearly all actives have a fitted effect of over 40% in size; also: potency is read from the fitted curve at half-maximal effect
condition details: MV4-11 AML viability, CellTiter-Glo luminescence, 72 h; series mostly up to 45 µM
Results filed as inconclusive are left out. Calls of active or inactive are those of the source. The call rests on the fitted dose curve; in most records, active means well fitted cell-killing curve with a large enough effect; inconclusive means small, poorly fitted or top-dose-only effect, or effect the other way; inactive means no such curve, though single readings can be large or run the other way.
measured endpoint: Potency

Answered cases to consult:
# molecule, Potency
data = [
    ("Cc1cc(NC(=O)C2=C(O)c3ccccc3S(=O)(=O)N2C)no1", "inactive"),
    ("Oc1ccccc1", "inactive"),
    ("Nc1c2ccccc2nc2ccccc12", "2.99 µM (active)"),
    ("CC[C@@]1(c2ccccc2)NC(=O)N(C)C1=O", "inactive"),
    ("Nc1ccc(S(=O)(=O)NC(=O)c2ccccc2)cc1", "inactive"),
    ("O=c1[nH]cnc2c1ncn2[C@H]1CC[C@@H](CO)O1", "inactive"),
]

Identify Potency associated with the molecule CN=C(NC#N)Nc1ccc(C2=NNC(=O)CC2C)cc1 (configuration not stated)
inactive

====

measurement description: Viability qHTS for spleen associated tyrosine kinase inhibitor (SYKi) naive MV4-11 cells (AID 1963823); also: nearly all actives have a fitted effect of over 40% in size
condition details: MV4-11 AML viability, CellTiter-Glo luminescence, 72 h; series mostly up to 45 µM
Inconclusive results are not listed. Calls of active or inactive are those of the source. Calls follow the shape of the dose curve; as a rule, active = well fitted cell-killing curve with a large enough effect; inconclusive = small, poorly fitted or top-dose-only effect, or effect the other way; inactive = no such curve, though single readings can be large or run the other way.
Lab note: assign the record to one of yes = active, no = inactive

// below: answered molecules
# molecule, label class
data = [
    ("Cc1cnc(C(=O)NCCc2ccc(S(=O)(=O)NC(=O)NC3CCCCC3)cc2)cn1", "no"),
    ("COC(=O)c1cccnc1", "no"),
    ("CC1(C)C(=O)N2c3ccccc3[C@]3(CC(n4cnc5ccccc5c4=O)C(=O)O3)[C@H]2N1O (stereo partly drawn)", "no"),
    ("CO[C@H]1/C=C/O[C@@]2(C)Oc3c(C)c(O)c4c(O)c(c(/C=N\\N5CCN(C6CCCC6)CC5)c(O)c4c3C2=O)NC(=O)/C(C)=C\\C=C\\[C@H](C)[C@H](O)[C@@H](C)[C@@H](O)[C@@H](C)[C@H](OC(C)=O)[C@@H]1C", "yes"),
]

Next molecule, please.
Query: recorded result category for COc1cc(CO)ccc1O[C@@H]1O[C@H](CO)[C@@H](O)[C@H](O)[C@H]1O in this test
no

====

measurement description: Cellular viability qHTS for adrenocortical cancer (ACC) cell line NCI-H295R (AID 1963990); also: nearly all actives have a fitted effect of over 60% in size
condition details: CellTiter-Glo ATP luminescence, 48 h; series mostly up to 46.1 µM
Results filed as inconclusive are left out. Active and inactive are the calls of the source. The call rests on the fitted dose curve; in most records, active means well fitted cell-killing curve with a large enough effect; inconclusive means small, poorly fitted or top-dose-only effect; inactive means flat fitted curve, though single readings scatter.
Lab note: assign the record to one of YES for active, NO for inactive

// below: answered molecules
# molecule, label class
records = [
    ("Nc1nc(N)c(-c2ccccc2)s1", "NO"),
    ("CCOc1ccccc1O[C@H](c1ccccc1)[C@H]1CNCCO1", "NO"),
    ("Cc1ccc2nc(NCCN)c3ncc(C)n3c2c1", "YES"),
]

Query: recorded result category for CC1(C)CC(=O)c2c(C(F)(F)F)nn(-c3ccc(C(N)=O)c(NC4CCC(OC(=O)CN)CC4)c3)c2C1 (stereo not drawn) in this test
YES

Query: recorded result category for NCCNC(=O)c1ccc(Cl)cn1 in this test
NO

Query: recorded result category for O=C(CCCc1ccc2cccnc2n1)NCc1cc(-c2ccc(F)c(C(F)(F)F)c2)no1 in this test
NO

====

measurement description: Viability qHTS for spleen associated tyrosine kinase inhibitor (SYKi) drug resistant MV4-11 cells (AID 1963824); also: nearly all actives have a fitted effect of over 35% in size
condition details: SYKi-resistant MV4-11 viability, CellTiter-Glo, 72 h; series mostly up to 45 µM
Records with an inconclusive call do not appear. Active and inactive are the calls of the source. The call rests on the fitted dose curve; in most records, active means well fitted cell-killing curve with a large enough effect; inconclusive means small, poorly fitted or top-dose-only effect, or effect the other way; inactive means no such curve, though single readings can be large or run the other way.
Lab note: assign the record to one of y (active), n (inactive)

// below: answered compounds
# compound, label class
measured = [
    ("COc1cc(/C=C/C(=O)OC2CC(OC(C)=O)C(OC(C)=O)C3C2CCC2C(=O)OC(c4ccoc4)CC23C)ccc1O[C@@H]1O[C@H](CO)[C@@H](O)[C@H](O)[C@H]1O (stereo partly drawn)", "n"),
    ("CCCCCc1ccc(/C=C/[C@H](O)[C@@H](CO)NC)cc1", "y"),
    ("CC(=O)OC[C@H]1O[C@@H](OC(C)=O)[C@H](OC(C)=O)[C@@H]1OC(C)=O", "n"),
    ("CCn1c(=O)c(-c2ccc(-c3cncs3)cc2Cl)cc2cnc(Nc3ccc(N4CCN(C)CC4)cc3)nc21", "y"),
    ("CC(C/C=C/C(C)(C)O)C1CCC(C)(O)C(O)C1 (stereo not drawn)", "n"),
]

Query: recorded result category for COc1cc([C@@H]2c3cc4c(cc3[C@H](O)[C@H]3COC(=O)[C@@H]23)OCO4)cc(OC)c1OC in this test
y

Query: recorded result category for COc1ccc2c(c1)c1c3n2CCN(C)C3=NCC1 in this test
n

Query: recorded result category for O=C(O)c1ccccc1C(=O)Nc1ccc(-c2ccccc2)cc1 in this test
n

====

measurement description: Quantitative highthroughput screen to assess conditional lethalithy of NOMO1 cells grown in RPMI1640 with untreated serum (RPMI+s) (AID 1963876); also: nearly all actives have a fitted effect of over 35% in size
condition details: NOMO1 AML cells in RPMI+serum, CellTiter-Glo viability, 48 h; series mostly up to 45.8 µM
Inconclusive results are not listed. The source made the active and inactive calls. Calls come from the whole dose curve; as a rule, active = well fitted cell-killing curve with a large enough effect; inconclusive = small, poorly fitted or top-dose-only effect; inactive = flat fitted curve, though single readings scatter.
Lab note: assign the record to one of active, inactive

// below: answered molecules
# molecule, label class
measured = [
    ("COc1ccc2c(c1)CC[C@H]1[C@@H]2CC[C@]2(C)[C@@H](NCCCCCCN3C(=O)C=CC3=O)CC[C@H]12", "inactive"),
    ("C[C@@]12C[C@@]3(O)O[C@@H](O1)[C@]1(COC(=O)c4ccccc4)[C@@H]3C[C@@]12O[C@@H]1O[C@H](CO)[C@@H](O)[C@H](O)[C@@H]1O", "inactive"),
    ("CCc1ccc(CCOc2ccc(CC3SC(=O)NC3=O)cc2)nc1 (configuration not stated)", "inactive"),
    ("COc1ccc(CCC(=O)Nc2nc3ccc(Cl)cc3s2)cc1OC", "inactive"),
    ("CCCCCOC(=O)Nc1nc(=O)n([C@@H]2O[C@H](C)[C@@H](O)C2O)cc1F (some centres not stated)", "inactive"),
    ("CC(C)c1cnn2c(NCc3ccccc3)cc(N[C@@H](CO)[C@H](O)CO)nc12", "active"),
    ("CC(=O)Nc1ccc([C@H](C)C(=O)Nc2ncc(C(C)C)s2)cc1", "active"),
    ("NC(=O)c1ccc(-c2nc(-c3ccc4c(c3)OCO4)c(-c3ccccn3)[nH]2)cc1", "inactive"),
    ("CC(C)(C)c1cc(NC(=O)Nc2ccc(-c3cn4c(n3)sc3cc(OCCN5CCOCC5)ccc34)cc2)no1", "inactive"),
    ("Cc1cc(Nc2ncc(Cl)c(Nc3ccccc3S(=O)(=O)C(C)C)n2)c(OC(C)C)cc1C1CCNCC1", "active"),
]

Query: recorded result category for CCCCN(CCCC)CC(O)c1cc(Cl)cc2c1-c1ccc(Cl)cc1C2=Cc1ccc(Cl)cc1 (configuration not stated) in this test
inactive

Query: recorded result category for CC(C)Cn1cnc2c(N)nc3ccccc3c21 in this test
inactive

Query: recorded result category for Cc1nc2c([nH]1)CCN(C(=O)c1ccc(NC(=O)c3ccccc3-c3ccccc3)cc1)c1ccccc1-2 in this test
inactive

Query: recorded result category for C[C@H]1[C@@H](OC(=O)CCC(=O)O)O[C@@H]2O[C@@]3(C)CC[C@@H]4[C@H](C)CC[C@@H]1[C@@]24OO3 in this test
active

Query: recorded result category for O=C(O)c1ccc2cc(-c3ccc(O)c(C45CC6CC(CC(C6)C4)C5)c3)ccc2c1 in this test
active
